Source of measurements: patent US20220142165A1

Reported values of melting point for individual entries

Record excerpt, results attached:
{"columns": ["compound", "melting point"],
 "data": [
  ["CO/N=C/c1cc(C(Oc2cc3scnc3cc2F)c2nnco2)ncc1F (stereo not shown) [b-57]", "150 to 151 °C"],
  ["CO/N=C/c1ccnc(C(Oc2cc(C)c3ncsc3c2)c2nnco2)c1 (stereo not shown) [b-23]", "146 to 148 °C"]
]}

Supply melting point value. Item: CO/N=C/c1ccnc(C(Oc2ccc3nc(C)sc3c2)c2nnco2)c1 (stereo not shown) [b-21]
107 to 109 °C

Give melting point for CO/N=C/c1cc(C(Oc2ccc3nc(OC)sc3c2)c2nnco2)ncc1F (stereo not shown) [b-54]
134 to 136 °C

# return recorded melting point for entry CO/N=C/c1cc(C(Oc2ccc3ncsc3c2)c2nnco2)ncc1F (stereo not shown) [b-15]
136 to 138 °C

Please report melting point for the following compound: FC(F)(F)CO/N=C/c1ccnc(C(Oc2ccc3ncsc3c2)c2nnco2)c1 (stereo not shown) [b-19]
128 to 130 °C

Assign melting point to the following record: CO/N=C/c1cc(C(Oc2ccc3nc(Br)sc3c2)c2nnco2)ncc1F (stereo not shown) [b-43]
151 to 154 °C

Using the record for CO/N=C/c1cc(C(Oc2ccc3ncsc3c2)c2nnco2)ncc1[S+](C)[O-] (stereo not shown) [b-61] , state its measured melting point.
85 to 88 °C

Assign melting point to the following record: CO/N=C/c1cc(C(Oc2ccc3nc(C(F)F)sc3c2)c2nnco2)ncc1F (stereo not shown) [b-72]
143 to 144 °C

Give reported melting point value for CO/N=C/c1ccnc(C(Oc2cc(F)c3ncsc3c2)c2nnco2)c1 (stereo not shown) [b-22]
113 to 148 °C

Using known records, supply melting point for CCc1cc(OC(c2cc(/C=N/OCCOC)c(F)cn2)c2nnco2)cc2sc(C)nc12 (stereo not shown) [b-87]
138 to 139 °C

Tell us which melting point value is on record for CO/N=C/c1cc(C(Oc2cc(OC)c3ncsc3c2)c2nnco2)ncc1F (stereo not shown) [b-84]
103 to 104 °C

* * *

Reported melting point by item:

Please review the entries below; each comes with its answer.
{"columns": ["molecule", "melting point"],
 "data": [
  ["C=Cc1cc(OC(c2cc(/C=N/OC)c(F)cn2)c2nnco2)cc2sc(C)nc12 (stereo not shown)", "116 to 119 °C"],
  ["CO/N=C/c1cc(C(Oc2cc(Br)c3ncsc3c2)c2nnco2)ncc1F (stereo not shown)", "170 to 172 °C"],
  ["CCc1cc(OC(c2cc(/C=N/OC)c(F)cn2)c2nnco2)cc2scnc12 (stereo not shown)", "114 to 117 °C"],
  ["CCc1cc(OC(c2cc(/C=N/OC)c(F)cn2)c2nnco2)cc2sc(C)nc12 (stereo not shown)", "145 to 147 °C"],
  ["CO/N=C/c1cc(C(Oc2cc(Br)c3nc(C)sc3c2)c2nnco2)ncc1F (stereo not shown)", "70 to 75 °C"]
]}

Identify measured melting point associated with CO/N=C/c1ccnc(C(Oc2ccc3nnsc3c2)c2nnco2)c1 (stereo not shown)
172 to 173 °C

Output melting point of CO/N=C/c1cc(C(Oc2cc(Cl)c3ncsc3c2)c2nnco2)ncc1F (stereo not shown)
153 to 154 °C
